- Tested on: MCF7
- measurement-protocol: Antiproliferative activity against human MCF7 cells assessed as reduction in cell viability by MTT assay
- Type: functional, cell-based
measurement-kind: pIC50
In simple prose, pIC50 is minus the logarithm base ten of a concentration in moles per litre.

## Task Provide measured pIC50 value, entry: CS(=O)(=O)N1CCN(Cc2ccc(-c3nc(-c4ccc(NC(=O)Nc5cccnc5)cc4)nc(N4CCOCC4)n3)s2)CC1
## Result 8.70

###

- study-system: Phosphatidylinositol 4,5-bisphosphate 3-kinase catalytic subunit alpha isoform (Homo sapiens, UniProt P42336)
- Sequence (P42336 whole entry, canonical isoform): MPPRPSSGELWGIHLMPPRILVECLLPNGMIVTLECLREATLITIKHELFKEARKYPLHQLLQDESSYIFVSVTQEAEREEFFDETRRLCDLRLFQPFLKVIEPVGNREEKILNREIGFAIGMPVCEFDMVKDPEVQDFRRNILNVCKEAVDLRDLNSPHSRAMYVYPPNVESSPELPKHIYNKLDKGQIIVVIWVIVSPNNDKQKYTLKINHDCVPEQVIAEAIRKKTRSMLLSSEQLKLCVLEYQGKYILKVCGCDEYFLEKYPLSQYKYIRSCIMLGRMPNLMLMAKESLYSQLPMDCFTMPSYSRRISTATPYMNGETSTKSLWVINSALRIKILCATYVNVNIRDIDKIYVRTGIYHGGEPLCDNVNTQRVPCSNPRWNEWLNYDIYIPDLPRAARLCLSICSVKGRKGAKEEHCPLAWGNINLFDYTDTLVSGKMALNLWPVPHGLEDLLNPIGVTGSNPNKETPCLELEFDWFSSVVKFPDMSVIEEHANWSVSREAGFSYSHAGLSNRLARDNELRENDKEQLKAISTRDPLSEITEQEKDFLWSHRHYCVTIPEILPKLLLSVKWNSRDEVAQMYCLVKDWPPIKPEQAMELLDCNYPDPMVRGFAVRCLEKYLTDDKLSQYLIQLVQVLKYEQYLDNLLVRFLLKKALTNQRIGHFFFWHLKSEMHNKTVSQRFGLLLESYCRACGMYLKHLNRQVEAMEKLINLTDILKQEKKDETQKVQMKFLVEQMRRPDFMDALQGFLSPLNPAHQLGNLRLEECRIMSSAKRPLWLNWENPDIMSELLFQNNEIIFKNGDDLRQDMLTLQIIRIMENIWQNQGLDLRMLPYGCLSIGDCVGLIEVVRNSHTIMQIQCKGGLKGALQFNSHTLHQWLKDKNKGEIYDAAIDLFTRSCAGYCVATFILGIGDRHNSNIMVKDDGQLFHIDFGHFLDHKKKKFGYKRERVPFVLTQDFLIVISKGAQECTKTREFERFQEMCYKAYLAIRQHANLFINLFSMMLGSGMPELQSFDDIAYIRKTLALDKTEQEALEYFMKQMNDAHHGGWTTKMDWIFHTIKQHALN
- measurement-protocol: Inhibition of PI3Kalpha (unknown origin)
measurement-kind: pIC50
# pIC50: negative log10 of molar concentration; output just the value

## Task Answer with the recorded pIC50 for the compound listed here: CS(=O)(=O)N1CCN(Cc2ccc(-c3nc(-c4ccc(NC(=O)Nc5cccnc5)cc4)nc(N4CCOCC4)n3)s2)CC1
## Result 6.54
